Assay: Toxicity in zebrafish assessed as mortality rate at 12.5 ug/ml
Parameters: species or system Danio rerio
Settings: in vivo, at 12.5 µg/mL, read-out: Activity
REPORTED_METRIC: mortality at 12.5 ug/ml (%)
// note: answer is a bare numeric in %

Note to self: mortality at 12.5 ug/ml recorded for `Cc1ncsc1-c1ccc([C@H](C)NC(=O)[C@@H]2C[C@@H](O)CN2C(=O)[C@@H](NC(=O)CCCCc2cn(CCOCCOCCOCCOCCNC(=O)[C@H](C)CC(=O)C[C@@H](C)[C@H]3C[C@H](O)[C@@]4(C)C5=C(C(=O)C[C@]34C)[C@@]3(C)CCC(=O)C(C)(C)[C@@H]3C[C@@H]5O)nn2)C(C)(C)C)cc1` was 0
